Readings of pIC50 for the listed compounds
# MEASURED_TARGET: Factor XIa (Homo sapiens, UniProt P03951)
# Sequence (P03951 19-387 limits assumed): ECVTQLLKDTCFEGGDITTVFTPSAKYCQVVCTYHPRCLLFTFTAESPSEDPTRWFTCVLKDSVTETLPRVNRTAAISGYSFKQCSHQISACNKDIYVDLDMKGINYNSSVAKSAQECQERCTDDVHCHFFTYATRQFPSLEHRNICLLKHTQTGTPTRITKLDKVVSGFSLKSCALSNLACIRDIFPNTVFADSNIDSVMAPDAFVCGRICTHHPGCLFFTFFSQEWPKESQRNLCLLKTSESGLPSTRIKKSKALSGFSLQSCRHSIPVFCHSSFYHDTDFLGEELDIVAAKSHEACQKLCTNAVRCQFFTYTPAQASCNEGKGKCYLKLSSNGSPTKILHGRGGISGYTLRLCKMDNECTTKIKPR
# Sequence (P03951 388-625 limits assumed): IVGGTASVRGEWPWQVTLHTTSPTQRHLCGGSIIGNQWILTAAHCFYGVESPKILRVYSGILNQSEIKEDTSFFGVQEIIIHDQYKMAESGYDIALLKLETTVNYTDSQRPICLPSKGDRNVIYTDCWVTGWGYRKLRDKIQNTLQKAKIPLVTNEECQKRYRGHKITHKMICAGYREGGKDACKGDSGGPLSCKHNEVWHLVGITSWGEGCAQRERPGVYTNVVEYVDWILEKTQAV
pIC50: −log10 of the molar value. Numbered stars: 1 amine (or outer) side, 2 acyl side, 3 side chain; on linkers, the order of the positions; unused ones are H or OH. Bridge positions count the residues as written; N and C are the ends. Square brackets hold non-standard residues; d marks the D form. Peptide text beside a SMILES is read from it. * marks the point of attachment. mXylylene = c1cc(C[*:1])cc(C[*:2])c1; Phg = N[C@H](C(=O)O)c1ccccc1; Tle = CC(C)(C)[C@H](N)C(=O)O; Heptanoyl = CCCCCCC(=O)*

| COMPOUND | MEASURED_TARGET | pIC50 |
| --- | --- | --- |
| CSCC[C@H](N)C(=O)N[C@@H](CS)C(=O)N[C@@H](CC(N)=O)C(=O)N[C@@H](Cc1ccc(O)cc1)C(=O)N[C@@H](Cc1c[nH]c2ccccc12)C(=O)N[C@@H](CO)C(=O)N1CCC[C@H]1C(=O)N[C@@H](Cc1c[nH]c2ccccc12)C(=O)N[C@H](C(=O)N[C@@H](CCC(=O)O)C(=O)N[C@@H](CS)C(=O)N[C@@H](CO)C(=O)N[C@@H](C)C(N)=O)[C@@H](C)O [Compound R2104, MCNYWSPWTECSA-NH2] (H-MCNYWSPWTECSA-NH2) | Factor XIa (Homo sapiens, UniProt P03951) | < 5.30 |
| CCCCCCC(=O)N[C@H]1CSCc2cccc(c2)CSC[C@@H](C(=O)N[C@@H](CCCNC(=N)N)C(=O)N[C@H](C(N)=O)C(C)C)NC(=O)[C@H]([C@@H](C)CC)NC(=O)[C@H](CO)NC(=O)[C@H](CCC(=O)O)NC1=O [Compound R2041, [mXylyl(1,5)]Heptanoyl-CESICRV-NH2] (Heptanoyl-CESICRV-NH2; linker 1-5 via mXylylene) | Factor XIa (Homo sapiens, UniProt P03951) | < 5.27 |
| CC(=O)N[C@H]1CSCc2cccc(c2)CSC[C@@H](C(=O)N[C@@H](CCCNC(=N)N)C(=O)N[C@H](C(N)=O)C(C)(C)C)NC(=O)[C@H](c2ccccc2)NC(=O)[C@H](CO)NC(=O)[C@H](C)NC1=O [Compound R2036, [mXylyl(1,5)]Ac-CAS-Phg-CR-Tbg-NH2] (Ac-CAS[Phg]CR[Tle]-NH2; linker 1-5 via mXylylene) | Factor XIa (Homo sapiens, UniProt P03951) | < 5.32 |

* * *

# MEASURED_TARGET: human plasma kallikrein (Homo sapiens)
# Construct: purchased Enzyme Research Laboratories HPKa 1303
# Sequence (P03952 20-390 limits assumed): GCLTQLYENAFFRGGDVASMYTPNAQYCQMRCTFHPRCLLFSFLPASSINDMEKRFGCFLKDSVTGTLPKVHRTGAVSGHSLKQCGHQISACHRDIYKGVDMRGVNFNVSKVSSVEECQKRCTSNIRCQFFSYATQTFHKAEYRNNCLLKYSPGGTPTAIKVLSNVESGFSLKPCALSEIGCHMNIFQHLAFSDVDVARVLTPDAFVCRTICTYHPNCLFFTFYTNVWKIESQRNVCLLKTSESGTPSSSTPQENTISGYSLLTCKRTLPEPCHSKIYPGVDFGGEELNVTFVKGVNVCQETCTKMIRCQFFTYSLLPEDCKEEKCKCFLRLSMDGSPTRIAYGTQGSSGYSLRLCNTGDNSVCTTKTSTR
# Sequence (P03952 391-638 limits assumed): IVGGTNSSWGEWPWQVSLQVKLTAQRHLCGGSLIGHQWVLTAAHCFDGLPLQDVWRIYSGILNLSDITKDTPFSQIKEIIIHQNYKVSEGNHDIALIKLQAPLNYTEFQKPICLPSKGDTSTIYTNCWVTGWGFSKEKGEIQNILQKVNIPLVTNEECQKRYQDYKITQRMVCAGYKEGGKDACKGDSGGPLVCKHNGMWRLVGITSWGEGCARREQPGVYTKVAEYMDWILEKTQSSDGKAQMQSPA
# ASSAY: Enzyme inhibition assay (fluorogenic substrate H-Pro-Phe-Arg-AMC)
# Type: biochemical
# CONDITION_SET: Kallikrein inhibitory activity; 1 nM activated human kallikrein, 500 μM H-Pro-Phe-Arg-AMC, 1 hour room temperature; read-out: Avg. IC50
Bridge positions count the residues as written; N and C are the ends. Peptide text beside a SMILES is read from it.
IC50 by entry:
MEASUREMENT_TYPE: IC50 (nM)

| MOLECULE | MEASUREMENT_TYPE | OUTPUT_UNIT | VALUE_OPERATOR | ENDPOINT_VALUE |
| --- | --- | --- | --- | --- |
| CC(=O)N[C@H]1CSSC[C@@H](C(N)=O)NC(=O)[C@H](C)NC(=O)[C@H]([C@@H](C)O)NC(=O)[C@H](Cc2c[nH]c3ccccc23)NC(=O)[C@@H]2CCCN2C(=O)[C@H](CO)NC(=O)[C@H](Cc2c[nH]c3ccccc23)NC(=O)[C@H](Cc2ccc(O)cc2)NC(=O)[C@H](CC(N)=O)NC1=O [Compound R2142, [cyclo(1,10)]Ac-CNYWSPWTAC-NH2] (Ac-CNYWSPWTAC-NH2; disulfide 1-10) | IC50 | nM | = | 2.7 |
| CC(=O)N[C@@H](CS)C(=O)N[C@@H](CC(N)=O)C(=O)N[C@@H](Cc1ccc(O)cc1)C(=O)N[C@@H](Cc1c[nH]c2ccccc12)C(=O)N[C@@H](CO)C(=O)N1CCC[C@H]1C(=O)N[C@@H](Cc1c[nH]c2ccccc12)C(=O)N[C@H](C(=O)N[C@@H](CCC(=O)O)C(=O)N[C@@H](CS)C(=O)N[C@@H](CO)C(=O)N[C@@H](C)C(N)=O)[C@@H](C)O [Compound R2116, Ac-CNYWSPWTECSA-NH2] (Ac-CNYWSPWTECSA-NH2) | IC50 | nM | = | 3.5 |
| CC[C@@H](C)[C@@H]1NC(=O)[C@@H]2CCCN2C(=O)CCCCCCCC/C=C/C[C@@H](C(=O)N[C@@H](CCCNC(=N)N)C(=O)N[C@H](C(N)=O)C(C)C)NC1=O [Compound R2243] | IC50 | nM | > | 50000 |
| CC(C)(C)[C@H](NC(=O)[C@H](CCCNC(=N)N)NC(=O)[C@@H]1CCCn2cc(nn2)CCCCCC(=O)N2CCC[C@H]2C(=O)N[C@@H](C2CCCCC2)C(=O)N1)C(N)=O [Compound R2250] | IC50 | nM | > | 100000 |

* * *

Target sequence: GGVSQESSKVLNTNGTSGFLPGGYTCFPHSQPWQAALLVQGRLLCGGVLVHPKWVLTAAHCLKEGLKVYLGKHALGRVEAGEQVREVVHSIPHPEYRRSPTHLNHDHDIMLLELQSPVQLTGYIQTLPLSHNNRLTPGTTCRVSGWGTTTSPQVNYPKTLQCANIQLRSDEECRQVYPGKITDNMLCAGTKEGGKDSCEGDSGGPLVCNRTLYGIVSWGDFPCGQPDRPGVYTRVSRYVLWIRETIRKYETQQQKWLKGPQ
Numbered stars: 1 amine (or outer) side, 2 acyl side, 3 side chain; on linkers, the order of the positions; unused ones are H or OH. Bridge positions count the residues as written; N and C are the ends. Square brackets hold non-standard residues; d marks the D form. Peptide text beside a SMILES is read from it. mXylylene = c1cc(C[*:1])cc(C[*:2])c1; Phg = N[C@H](C(=O)O)c1ccccc1; Tle = CC(C)(C)[C@H](N)C(=O)O
Collected IC50 values appear next to each entry.
MEASUREMENT_TYPE: IC50

| MOLECULE | ENDPOINT_VALUE |
| --- | --- |
| CSCC[C@H](N)C(=O)N[C@H]1CSCc2cccc(c2)CSC[C@@H](C(=O)N[C@@H](CCCNC(=N)N)C(=O)N[C@H](C(N)=O)C(C)C)NC(=O)[C@H](c2ccccc2)NC(=O)[C@H](CO)NC(=O)[C@H](CCC(=O)O)NC1=O [Compound R2012, [mXylyl(2,6)]MCES-Phg-CRV-NH2] (H-MCES[Phg]CRV-NH2; linker 2-6 via mXylylene; N-terminus assumed) | > 100 µM |
| CC[C@H](C)[C@@H]1NC(=O)[C@H](CO)NC(=O)[C@@H](C)NC(=O)[C@@H](NC(C)=O)CSCc2cccc(c2)CSC[C@@H](C(=O)N[C@@H](CCCNC(=N)N)C(=O)N[C@H](C(N)=O)C(C)C)NC1=O [Compound R2047, [mXylyl(1,5)]Ac-C-a-SICRV-NH2] (Ac-C[dA]SICRV-NH2; linker 1-5 via mXylylene) | > 100 µM |
| CC(=O)N[C@H]1CSCc2cccc(c2)CSC[C@@H](C(=O)N[C@@H](CCCNC(=N)N)C(=O)N[C@H](C(N)=O)C(C)(C)C)NC(=O)[C@H](c2ccccc2)NC(=O)[C@H](CO)NC(=O)[C@H](C)NC1=O [Compound R2036, [mXylyl(1,5)]Ac-CAS-Phg-CR-Tbg-NH2] (Ac-CAS[Phg]CR[Tle]-NH2; linker 1-5 via mXylylene) | > 100 µM |

* * *

# MEASURED_TARGET: tissue kallikrein KLK13 (Homo sapiens)
# Sequence (Q9UKR3 17-277): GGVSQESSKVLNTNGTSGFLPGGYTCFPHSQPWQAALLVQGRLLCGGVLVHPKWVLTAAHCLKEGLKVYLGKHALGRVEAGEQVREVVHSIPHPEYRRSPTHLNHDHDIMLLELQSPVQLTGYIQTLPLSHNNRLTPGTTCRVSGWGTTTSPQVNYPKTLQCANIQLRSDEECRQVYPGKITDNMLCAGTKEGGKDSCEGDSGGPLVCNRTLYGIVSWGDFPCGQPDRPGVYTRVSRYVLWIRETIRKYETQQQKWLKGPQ
Numbered stars: 1 amine (or outer) side, 2 acyl side, 3 side chain; on linkers, the order of the positions; unused ones are H or OH. Bridge positions count the residues as written; N and C are the ends. Square brackets hold non-standard residues; d marks the D form. Peptide text beside a SMILES is read from it. mXylylene = c1cc(C[*:1])cc(C[*:2])c1; Phg = N[C@H](C(=O)O)c1ccccc1; Tle = CC(C)(C)[C@H](N)C(=O)O; Nva = CCC[C@H](N)C(=O)O; Mpa = O=C(O)CCS
Reported IC50 by item:

| MOLECULE | IC50 |
| --- | --- |
| CSCC[C@H](N)C(=O)N[C@@H](CS)C(=O)N[C@@H](CC(N)=O)C(=O)N[C@@H](Cc1ccc(O)cc1)C(=O)N[C@@H](Cc1c[nH]c2ccccc12)C(=O)N[C@@H](CO)C(=O)N1CCC[C@H]1C(=O)N[C@@H](Cc1c[nH]c2ccccc12)C(=O)N[C@H](C(=O)N[C@@H](CCC(=O)O)C(=O)N[C@@H](CS)C(=O)N[C@@H](CO)C(=O)N[C@@H](C)C(N)=O)[C@@H](C)O [Compound R2104, MCNYWSPWTECSA-NH2] (H-MCNYWSPWTECSA-NH2) | > 100 µM |
| CC[C@H](C)[C@@H]1NC(=O)[C@H](CO)NC(=O)[C@H](CCC(=O)O)NC(=O)CCSCc2cccc(c2)CSC[C@@H](C(=O)N[C@@H](CCCNC(=N)N)C(=O)N[C@H](C(N)=O)C(C)C)NC1=O [Compound R2051, [mXylyl(1,5)](des-NH2)C-ESICRV-NH2] ([Mpa]ESICRV-NH2; linker 1-5 via mXylylene) | > 100 µM |
| CCC[C@H](N)C(=O)N[C@H]1CSCc2cccc(c2)CSC[C@@H](C(=O)N[C@@H](CCCNC(=N)N)C(=O)N[C@H](C(N)=O)C(C)(C)C)NC(=O)[C@H](c2ccccc2)NC(=O)[C@@H]2CCCN2C(=O)[C@H](CCC(=O)O)NC1=O [Compound R2030, [mXylyl(2,6)]Nvl-CEP-Phg-CR-Tbg-NH2] (H-[Nva]CEP[Phg]CR[Tle]-NH2; linker 2-6 via mXylylene) | > 100 µM |
